Data origin: paper PMC4869123

target: human IL-17A (Homo sapiens); construct: host or cells: added to BJ human fibroblasts (ATCC CRL2522); assay: BJ human fibroblast cell assay, IL-17A stimulated GRO-α production; format: cell-based; conditions: BJ human fibroblast cells, 1 ng/ml human IL-17A
Sequence (Q16552 24-155): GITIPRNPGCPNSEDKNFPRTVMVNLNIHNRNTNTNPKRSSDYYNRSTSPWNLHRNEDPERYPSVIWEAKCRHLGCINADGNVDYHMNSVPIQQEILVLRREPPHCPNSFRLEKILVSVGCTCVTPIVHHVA
MEASUREMENT TYPE: pIC50
One number for each entry, as −log10 of the molar value.

Identify measured pIC50 corresponding to Ac-IHVTIPADLWDWI-NH2 [Compound 36]
6.74
